Hey, just so you know, these numbers are from patent US20200140562A1.

Biological target: T1, cyno OX40_Fc (Acro Biosystems) (cyno)
T1 construct: Bought
Experiment: BLI, IgG1 on tip, cyno OX40-Fc 100 nM, avid
attribute-measured: Kd (nM)
Give the value in nM but do not write nM after it.

binder	result-unit	Kd
ADI-25652, IgG1 format (antibody, V domains shown, Made in yeast) VH: QVQLVESGGGVVQPGRSLRLSCAASGFTFVSYNMHWVRQAPGKGLEWVAVIAYDGSVKYYADSVKGRFTISRDNSKNTLYLQMNSLRAEDTAVYYCARGRPWYSETGTSAFDIWGQGTMVTVSS VL: DIQMTQSPSSLSASVGDRVTITCQASQDISNYLNWYQQKPGKAPKLLIYDASNLETGVPSRFSGSGSGTDFTFTISSLQPEDIATYYCQQSDHYPTFGGGTKVEIKR	nM	2.11

Now turn to the next binder.
(Q) Tell me measured Kd for ADI-23518, IgG1 format (antibody, V domains shown, Made in yeast) VH: QVQLQESGPGLVKPSQTLSLTCTVSGGSISSGASYWSWIRQHPGKGLEWIGYIYYSGETYYNPSLKSRVTISVDTSKNQFSLKLSSVTAADTAVYYCARDVGYPHYYGMDVWGQGTTVTVSS VL: EIVLTQSPGTLSLSPGERATLSCRASQSVSSSYLAWYQQKPGQAPRLLIYGASSRATGIPDRFSGSGSGTDFTLTISRLEPEDFAVYYCQQSERSPFTFGGGTKVEIKR please.
(A) 1.08
